Molecular target: HSP27 (Homo sapiens, UniProt P04792)
Sequence (P04792 whole entry): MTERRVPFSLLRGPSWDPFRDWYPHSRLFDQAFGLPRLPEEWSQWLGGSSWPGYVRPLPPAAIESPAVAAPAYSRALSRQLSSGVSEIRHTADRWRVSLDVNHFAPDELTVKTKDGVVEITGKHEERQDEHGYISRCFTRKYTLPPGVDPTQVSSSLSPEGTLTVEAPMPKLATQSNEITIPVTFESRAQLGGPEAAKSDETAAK
Experiment: Capillary electrophoresis of heat-denatured citrate synthase protein precipitates
Type: biochemical
Settings: 10 μmol/L, 43° C. for 120 minutes; relative to 750 μmol/L BVDU = 1 (Table 1)
Procedure: Since the heat-denatured protein aggregates of the citrate synthase from Example 1 are not water-soluble, these can be separated completely from the supernatant by means of centrifugation at room temperature at 16,000×g, 10 min. By using capillary electrophoresis, the compositions of the separated precipitates can be shown and quantified. The relative quantity of protein of precipitated citrate synthase serves as a measure of the efficacy of the test substances. […]
endpoint: Rel. quantity of protein prec. CS

In [3]: df
Out[3]:
                                   compound                           endpoint  recorded_number
0  CN(C)CCCN1c2ccccc2Sc2ccc(Cl)cc21 [Chlorpromazine, reference compound]  Rel. quantity of protein prec. CS             1.06
1  O=c1[nH]c(Nc2cccc(C(Cl)=C(Cl)Cl)c2)nc2[nH]cnc12  Rel. quantity of protein prec. CS             0.71
2  CCCCc1ccc(Nc2nc3c(ncn3COCCO)c(=O)[nH]2)cc1  Rel. quantity of protein prec. CS             0.92
3    CC(=O)c1ccc2c(c1)N(CCCN(C)C)c1ccccc1S2  Rel. quantity of protein prec. CS             0.99

---

Target: UniProt P04792
Experiment: Capillary electrophoresis of heat-denatured citrate synthase protein precipitates
Type: biochemical
Conditions: 10 μmol/L vs 750 μmol/L BVDU, 43° C. for 120 minutes
Procedure: Since the heat-denatured protein aggregates of the citrate synthase from Example 1 are not water-soluble, these can be separated completely from the supernatant by means of centrifugation at room temperature at 16,000×g, 10 min. By using capillary electrophoresis, the compositions of the separated precipitates can be shown and quantified. The relative quantity of protein of precipitated citrate synthase serves as a measure of the efficacy of the test substances. […]
endpoint: times higher activity than BVDU for the inhibition of the HSP27 protein (times)

                               entry_smiles  readout_unit  recorded_number
0  O=c1[nH]c(Nc2cccc(C(Cl)=C(Cl)Cl)c2)nc2[nH]cnc12         times               53
1  Cc1cn(CC=CCNC(=O)Cc2ccc(-c3ccccc3)cc2)c(=O)[nH]c1=O         times               61
2  Cc1cn(CC=CCNC(=O)C2c3ccccc3Oc3ccccc32)c(=O)[nH]c1=O         times               49
3  CCCCc1ccc(Nc2nc3c(ncn3COCCO)c(=O)[nH]2)cc1         times               69

---

Target: HSP27 (Homo sapiens, UniProt P04792)
Assay: Capillary electrophoresis of heat-denatured citrate synthase protein precipitates
Format: biochemical
Conditions: 10 μmol/L vs 750 μmol/L BVDU, 43° C. for 120 minutes (Table 1)
endpoint: Efficacy compared with BVDU (x)

>>> print(df.to_string())
                                   compound                     system_under_test  recorded_number
0  O=c1[nH]c(Nc2cccc(C(Cl)=C(Cl)Cl)c2)nc2[nH]cnc12  HSP27 (Homo sapiens, UniProt P04792)            53.25
1  CN(C)CCCN1c2ccccc2Sc2ccc(Cl)cc21 [Chlorpromazine, reference compound]  HSP27 (Homo sapiens, UniProt P04792)             79.5
2    CC(=O)c1ccc2c(c1)N(CCCN(C)C)c1ccccc1S2  HSP27 (Homo sapiens, UniProt P04792)            74.25
3  CCCCc1ccc(Nc2nc3c(ncn3COCCO)c(=O)[nH]2)cc1  HSP27 (Homo sapiens, UniProt P04792)             69.0

---

Target: UniProtKB P04792
Assay: Capillary electrophoresis of heat-denatured citrate synthase protein precipitates
Type: biochemical
Details: 10 μmol/L vs 750 μmol/L BVDU, 43° C. for 120 minutes (Table 2)
endpoint: Efficacy compared with BVDU (x)

>>> df
                                   compound                     endpoint  readout_unit  recorded_number
0  Cc1cn(CC=CCNC(=O)Cc2ccc(-c3ccccc3)cc2)c(=O)[nH]c1=O  Efficacy compared with BVDU             x            60.75
1    CC(=O)c1ccc2c(c1)N(CCCN(C)C)c1ccccc1S2  Efficacy compared with BVDU             x            74.25

P. CN(C)CCCN1c2ccccc2Sc2ccc(Cl)cc21 [Chlorpromazine, reference compound]
Q. Cc1cn(CC=CCNC(=O)C2c3ccccc3Oc3ccccc32)c(=O)[nH]c1=O
Q: When P and Q are compared, which has the higher number for Efficacy compared with BVDU? # reply format: chosen label
A: P

---

Target: HSP27 (Homo sapiens)
Assay: Capillary electrophoresis of heat-denatured citrate synthase protein precipitates
Format: biochemical
Conditions: 10 μmol/L vs 750 μmol/L BVDU, 43° C. for 70 minutes (Table 3)
Protocol: Since the heat-denatured protein aggregates of the citrate synthase from Example 1 are not water-soluble, these can be separated completely from the supernatant by means of centrifugation at room temperature at 16,000×g, 10 min. By using capillary electrophoresis, the compositions of the separated precipitates can be shown and quantified. The relative quantity of protein of precipitated citrate synthase serves as a measure of the efficacy of the test substances. […]
endpoint: Efficacy compared with BVDU (x)

In [3]: df
Out[3]:
                                   compound                     endpoint  recorded_number
0  Cc1cn([C@H]2C[C@H](n3cc(-c4ccccc4)nn3)[C@@H](CO)O2)c(=O)[nH]c1=O  Efficacy compared with BVDU            59.07
1  Cc1cn([C@H]2C[C@H](n3cc(-c4ccc(F)cc4)nn3)[C@@H](CO)O2)c(=O)[nH]c1=O  Efficacy compared with BVDU            49.69
2  Cc1cn([C@H]2C[C@H](n3cc(CC4CCCC4)nn3)[C@@H](CO)O2)c(=O)[nH]c1=O  Efficacy compared with BVDU            49.63
3  Cc1cn([C@H]2C[C@H](n3cc(-c4ccccn4)nn3)[C@@H](CO)O2)c(=O)[nH]c1=O  Efficacy compared with BVDU            62.86
4  CCCc1cn([C@H]2C[C@H](n3cc(C)c(=O)[nH]c3=O)O[C@@H]2CO)nn1  Efficacy compared with BVDU            59.59
5  Cc1cn(C2C[C@H](n3cc(-c4cccc(Br)c4)nn3)[C@@H](CO)O2)c(=O)[nH]c1=O (some centres unmarked)  Efficacy compared with BVDU            60.88
6  Cc1cn(C/C=C\CNC(=O)Cc2ccc3ccccc3c2)c(=O)[nH]c1=O  Efficacy compared with BVDU            62.51
7  CCCCCc1cn([C@H]2C[C@H](n3cc(C)c(=O)[nH]c3=O)O[C@@H]2CO)nn1  Efficacy compared with BVDU            52.57

---

Target: HSP27 (Homo sapiens)
Experiment: Capillary electrophoresis of heat-denatured citrate synthase protein precipitates
Format: biochemical
Settings: based on 100 mg BVDU
endpoint: BVDU equivalent dose (mg)

>>> df
                               entry_smiles     system_under_test              endpoint  recorded_number
0  Cc1cn(CC=CCNC(=O)Cc2ccc(-c3ccccc3)cc2)c(=O)[nH]c1=O  HSP27 (Homo sapiens)  BVDU equivalent dose              1.6
1  CCCCc1ccc(Nc2nc3c(ncn3COCCO)c(=O)[nH]2)cc1  HSP27 (Homo sapiens)  BVDU equivalent dose              1.4

---

Target: HSP27 (Homo sapiens, UniProt P04792)
Experiment: Capillary electrophoresis of heat-denatured citrate synthase protein precipitates
Format: biochemical
Details: 10 μmol/L, 43° C. for 70 minutes; relative to 750 μmol/L BVDU = 1 (Table 3)
endpoint: Rel. quantity of protein prec. CS

>>> df
                                   compound                     system_under_test  recorded_number
0  Cc1cn(C2C[C@H](n3cc(-c4ccc(Br)cc4)nn3)[C@@H](CO)O2)c(=O)[nH]c1=O (stereo partly shown)  HSP27 (Homo sapiens, UniProt P04792)             0.64
1  Cc1cn([C@H]2C[C@H](n3cc(-c4ccc(Cl)cc4)nn3)[C@@H](CO)O2)c(=O)[nH]c1=O  HSP27 (Homo sapiens, UniProt P04792)             0.67
2  Cc1cn([C@H]2C[C@H](n3cc(-c4ccc(Cl)c(Cl)c4)nn3)[C@@H](CO)O2)c(=O)[nH]c1=O  HSP27 (Homo sapiens, UniProt P04792)             0.86
3  Cc1cn([C@H]2C[C@H](n3cc(-c4ccccn4)nn3)[C@@H](CO)O2)c(=O)[nH]c1=O  HSP27 (Homo sapiens, UniProt P04792)             0.84
4  COc1ccc(-c2cn([C@H]3CC(n4cc(C)c(=O)[nH]c4=O)O[C@@H]3CO)nn2)cc1 (stereo partly shown)  HSP27 (Homo sapiens, UniProt P04792)             0.75
5  Cc1cn(C2C[C@H](n3cc(-c4cccc(Br)c4)nn3)[C@@H](CO)O2)c(=O)[nH]c1=O (stereo partly shown)  HSP27 (Homo sapiens, UniProt P04792)             0.81
6  Cc1cn([C@H]2C[C@H](n3cc(CCc4ccccc4)nn3)[C@@H](CO)O2)c(=O)[nH]c1=O  HSP27 (Homo sapiens, UniProt P04792)             0.74
